- ASSAY_TARGET: Wee1 (Homo sapiens)
- Construct: Eurofins
- Sequence (P30291 whole entry): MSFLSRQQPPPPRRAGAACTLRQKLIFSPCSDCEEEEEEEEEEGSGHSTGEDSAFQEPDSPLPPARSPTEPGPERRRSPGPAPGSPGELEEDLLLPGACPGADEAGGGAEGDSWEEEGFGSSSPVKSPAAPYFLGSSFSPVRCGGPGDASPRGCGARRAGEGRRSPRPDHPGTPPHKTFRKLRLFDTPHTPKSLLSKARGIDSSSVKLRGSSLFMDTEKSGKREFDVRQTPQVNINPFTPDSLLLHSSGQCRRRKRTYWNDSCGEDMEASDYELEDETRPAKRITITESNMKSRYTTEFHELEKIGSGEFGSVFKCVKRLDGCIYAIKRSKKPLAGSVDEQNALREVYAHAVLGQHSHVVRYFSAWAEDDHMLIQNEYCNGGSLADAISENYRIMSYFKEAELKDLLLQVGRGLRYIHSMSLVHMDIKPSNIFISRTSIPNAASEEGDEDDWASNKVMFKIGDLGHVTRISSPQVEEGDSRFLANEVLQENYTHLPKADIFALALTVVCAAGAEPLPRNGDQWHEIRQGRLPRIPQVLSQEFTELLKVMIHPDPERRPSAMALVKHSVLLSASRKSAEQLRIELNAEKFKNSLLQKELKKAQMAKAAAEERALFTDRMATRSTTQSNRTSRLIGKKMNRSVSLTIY
- PROTOCOL_TEXT: In vitro enzyme inhibitory activity, Wee1 kinase radiometric ([33P]-ATP) assay at Eurofins
- Assay type: biochemical
- RECORDED_CONDITIONS: in vitro enzymatic activity; 40 min at room temperature, peptide substrate 500 μM
VALUE_TYPE: IC50 (nM)

Solved entries:
CN1CCC(n2ccc3cc(Nc4ncc5c(=O)n6n(c5n4)-c4cccc(n4)[C@](C)(O)CC/C=C(/F)C6)ccc32)CC1 = 37
C/C1=C/CC[C@@](C)(O)c2cccc(n2)-n2c3nc(Nc4ccc(N5CCN(C)CC5)cc4)ncc3c(=O)n2C1 = 130

(P) CN1CCN(c2ccc(Nc3ncc4c(=O)n5n(c4n3)-c3cccc(n3)[C@](C)(O)CC/C=C(/F)C5)cc2)CC1
(Q) CN1CCN(c2ccc(Nc3ncc4c(=O)n5n(c4n3)-c3cccc(n3)[C@@](C)(O)CC/C=C(/F)C5)cc2)CC1
(R) CN1CCN(c2ccc(Nc3ncc4c(=O)n5n(c4n3)-c3cccc(n3)[C@](C)(O)CC/C=C(\F)C5)cc2)CC1
Problem: Hi! Can you put these in order of IC50, lowest number first? Give your ranking as a list of the labels in the requested order.
Solution: P, R, Q
